test system: CCRF-CEM leukemia; experiment: NCI tumour cell line growth inhibition, 48 h
Form field: TGI (one value per entry).

| compound | TGI |
| --- | --- |
| CC(=O)OCC1OC(n2c(-c3ccc(Cl)cc3)ccc(C#N)c2=S)C(OC(C)=O)C(OC(C)=O)C1OC(C)=O (stereo not drawn) | > 100 µM |
| C[n+]1c(-c2ccc(/C=N/NC(=N)N/N=C/c3ccc(-c4cn5cc(Cl)ccc5[n+]4C)cc3)cc2)cn2cc(Cl)ccc21 | > 100 µM |
| CO[C@H]1/C=C/O[C@@]2(C)Oc3c(C)c(O)c4c(c3C2=O)C(=O)C(/C=N/N(c2ccccc2)c2ccccc2)=C(NC(=O)/C(C)=C\C=C\[C@H](C)[C@H](O)[C@@H](C)[C@@H](O)[C@@H](C)[C@H](OC(C)=O)[C@@H]1C)C4=O | 4.84 µM |
| O=S(=O)(CCBr)CCBr | > 30.2 µM |
| S=C(Nc1ccc(Br)cc1)Nc1ccc(Br)cc1 | > 100 µM |
| COc1cc(C#Cc2ccc(=O)oc2C#Cc2ccccc2)cc(OC)c1OC | > 100 µM |
| COc1ccc(-c2cn[nH]c2-c2cc(OC)c3c(c2)OCO3)cc1 | 21.3 µM |
| Cc1ccc(C)c2c1C(O)(C#Cc1ccccc1)c1ccccc1C2(O)C#Cc1ccccc1 (stereo not drawn) | > 25.4 µM |
| [Cl-].[O-]/N=C(\c1ccccc1)c1ccccn1.[O-]/N=C(\c1ccccc1)c1ccccn1.[O-]/N=C(\c1ccccc1)c1ccccn1.[Sm+3] | 98.8 µM |
| CC[N+](CC)=c1sc2c(s1)C(c1ccc(Cl)cc1)Oc1ccc(Cl)cc1-2 (stereo not drawn) | 6.35 µM |
| CCCCCC(=O)C(C)C1=Nc2nnc(CCCCCCCc3nnc4n3C(=O)C(C(C)C(=O)CCCCC)=N4)n2C1=O (stereo not drawn) | > 100 µM |
| CC(NC(=O)C(C)NC(=O)C(N)CCP(C)(=O)O)C(=O)O (stereo not drawn) | > 100 µM |
| CC(C(=O)c1ccccc1)C(c1ccccc1)N1CCOCC1 (stereo not drawn) | > 100 µM |
| C[C@]12CC[C@H]3[C@@H](CC=C4C[C@@H](N5CCCC5)CC[C@@]43C)[C@@H]1C[C@H](N1CCOCC1)[C@@H]2O | > 100 µM |
| C=C(C)C(=O)O[C@H]1C[C@@]23O[C@@H]2CCC(=C[C@H]2OC(=O)C(=C)[C@H]12)COC3O (stereo partly drawn) | 50.1 µM |
| O=C(CC(c1ccccc1)c1c(O)c2ccccc2oc1=O)c1ccccc1 (stereo not drawn) | > 100 µM |
| COC(=O)CCC(=O)NC1=C(Nc2ccc(OC)cc2)C(=O)c2ccccc2C1=O | > 85.2 µM |
| COc1ccc(OC)c(/C(C)=N/NC(N)=S)c1 | > 100 µM |

###

test system: NCI-H522 lung; test: NCI tumour cell line growth inhibition, 48 h; in the data active = GI50 below about 0.43 µM; inactive = the rest
Outcomes: active, inactive

| molecule | label-value |
| --- | --- |
| CCOC(=O)N1CCN(c2nc(Nc3cc(C)[nH]n3)c3ccccc3n2)CC1 | inactive |
| Cc1cc(S(=O)(=O)Nc2nc3cscc3c(=O)n2Cc2ccccc2)c(S)cc1Cl | inactive |
| COc1ccc(C(=O)/C=C/c2ccc(C)cc2)cc1OC | inactive |
| C#CCOc1cccc(-c2ncnc3cc(NC(=O)CCl)ccc23)c1 | active |
| CC(=O)[CH-]C(C)=O.CC(=O)[CH-]C(C)=O.[CH2-]CCC.[CH2-]CCC.[Sn+4] | active |
| OCc1ccc(-c2ccc(-c3ccc(CO)o3)[se]2)o1 | inactive |
| COc1cccc(-c2nc3sccn3c2-c2ccnc(NCCCNS(=O)(=O)c3cccc(F)c3)c2)c1 | inactive |
| Nc1ccc(C2=NN(c3ccccc3)C(c3ccc(Cl)cc3)C2)cc1 (stereo not given) | inactive |
| Cc1nc(SCC(=O)Nc2nc(-c3ccc(Cl)cc3)cs2)n(Nc2ccccc2)c1C | inactive |
| CN(C)CCCOc1ccc(-c2ccc3ncc4c(c3c2)n(C2CCOCC2)c(=O)n4C)cn1 | inactive |
